# Tested on: HS 578T breast
# Experiment Summary: NCI-60 one-dose screen, 48 h (100 = growth as untreated, 0 = no growth, -100 = all killed)
# Assay Setup: 10 µM unless noted
This is part of a sample that, as a whole, favours compounds with a hit. Of some 83,000 tested, about 20% had one in any assay.
Reported Metric: growth (%)

[
  {
    "Molecule": "Nn1c(=O)c(=O)[nH]c2c(cnn2-c2ccccc2)c1=O",
    "Reported Metric": "growth",
    "Experimental Value": 111
  },
  {
    "Molecule": "C#CCOc1cccc(-c2ncnc3cc(NC(=O)C=C)ccc23)c1",
    "Reported Metric": "growth",
    "Experimental Value": 24.6
  },
  {
    "Molecule": "Cc1cccc(-c2nc(Nc3ccc4ncsc4c3)c3ccccc3n2)n1",
    "Reported Metric": "growth",
    "Experimental Value": 116
  },
  {
    "Molecule": "Cc1cccc(N2CCC(=O)NC2=S)c1",
    "Reported Metric": "growth",
    "Experimental Value": 107
  },
  {
    "Molecule": "CCN(CC)CCN1C(=O)c2c(c(C)c3c(oc4ccc(O)cc43)c2C)C1=O",
    "Reported Metric": "growth",
    "Experimental Value": 72.9
  },
  {
    "Molecule": "O=C1NC(=O)/C(=C/c2c(-c3ccccc3)nc3sc(COc4ccccc4)nn23)S1",
    "Reported Metric": "growth",
    "Experimental Value": 105
  },
  {
    "Molecule": "CCCCCN(CCCCC)CC(O)c1cc(C)c2ccc3cc(C(C)C)ccc3c2c1 (stereo unspecified)",
    "Reported Metric": "growth",
    "Experimental Value": -24
  },
  {
    "Molecule": "COc1cc(C(=O)n2nc(N3CCOCC3)c3cc(-n4cccc4)ccc32)cc(OC)c1OC",
    "Reported Metric": "growth",
    "Experimental Value": 68.5
  },
  {
    "Molecule": "O=C(Nc1ncc(Cc2ccccc2)s1)c1ccc2c(c1)OCCCO2",
    "Reported Metric": "growth",
    "Experimental Value": 49.7
  },
  {
    "Molecule": "O=C1c2ccccc2C(=O)C1c1ccc(Br)cc1",
    "Reported Metric": "growth",
    "Experimental Value": 99.3
  },
  {
    "Molecule": "CC(=O)ON1CCCC(P(=O)(OCCSC(=O)C(C)(C)C)OCCSC(=O)C(C)(C)C)C1=O (stereo unspecified)",
    "Reported Metric": "growth",
    "Experimental Value": 19.6
  },
  {
    "Molecule": "CC[C@]12C=CCN3CC[C@@]4(c5ccc(OC)cc5N(C)[C@H]4[C@@](O)(C(=O)OC)[C@@H]1OC(=O)CCC[P+](c1ccccc1)(c1ccccc1)c1ccccc1)[C@@H]32",
    "Reported Metric": "growth",
    "Experimental Value": 25.5
  },
  {
    "Molecule": "N#C/C(=C\\C=C\\c1ccc(-c2cc(Cl)ccc2Cl)o1)c1nc2ccccc2s1",
    "Reported Metric": "growth",
    "Experimental Value": 100
  },
  {
    "Molecule": "CN(Cc1ccccc1)c1nc(Cl)c(C2CC(c3ccccc3)=NN2c2ccccc2)s1 (stereo unspecified)",
    "Reported Metric": "growth",
    "Experimental Value": 103
  },
  {
    "Molecule": "COc1ccc(/C=C(/c2ccccc2)[N+](=O)[O-])c(OC)c1",
    "Reported Metric": "growth",
    "Experimental Value": 46.1
  },
  {
    "Molecule": "CCC1S/C(=N\\N=C(\\C)c2cc3cc(Cl)ccc3o2)N(c2ccccc2)C1=O (stereo unspecified)",
    "Reported Metric": "growth",
    "Experimental Value": 52.4
  }
]
